FYI, the data here is from patent US20250042994A1.

Items are presented alongside their recorded Proportion of chimeric antibody positive cells to B cells (%) at 10 nM.
- studySystem: T1, cynomolgus monkey CD19 on peripheral blood B cells (cynomolgus monkey (Macaca fascicularis), UniProt A0A2K5W8L9 20-557)
- T1 construct: whole, on cells; also called cynomolgus monkey B cells
- T1 sequence: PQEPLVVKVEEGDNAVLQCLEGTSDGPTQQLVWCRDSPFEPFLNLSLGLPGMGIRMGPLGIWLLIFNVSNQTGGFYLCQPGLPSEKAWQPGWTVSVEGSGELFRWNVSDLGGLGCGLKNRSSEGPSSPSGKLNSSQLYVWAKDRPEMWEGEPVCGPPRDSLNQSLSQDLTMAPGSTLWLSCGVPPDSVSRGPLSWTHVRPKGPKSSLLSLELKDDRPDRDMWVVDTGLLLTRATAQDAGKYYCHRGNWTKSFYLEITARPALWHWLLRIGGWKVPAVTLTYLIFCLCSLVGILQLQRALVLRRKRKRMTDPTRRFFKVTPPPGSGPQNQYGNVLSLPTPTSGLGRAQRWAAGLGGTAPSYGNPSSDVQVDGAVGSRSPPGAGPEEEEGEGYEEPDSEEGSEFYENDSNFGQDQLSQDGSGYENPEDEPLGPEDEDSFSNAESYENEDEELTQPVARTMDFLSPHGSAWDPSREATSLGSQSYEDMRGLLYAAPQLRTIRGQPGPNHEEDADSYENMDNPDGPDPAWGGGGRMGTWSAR
- assayNotes: FACS, cynomolgus PBMC, CD20+ B cells
Please respond with the number in % and leave the unit unwritten.

F3.114.12 (antibody, human IgG1, V domains shown, human-murine chimeric antibody, human IgG1) VH: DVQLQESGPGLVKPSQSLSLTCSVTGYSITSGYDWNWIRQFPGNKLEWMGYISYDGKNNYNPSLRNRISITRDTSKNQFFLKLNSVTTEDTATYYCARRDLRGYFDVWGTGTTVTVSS VL: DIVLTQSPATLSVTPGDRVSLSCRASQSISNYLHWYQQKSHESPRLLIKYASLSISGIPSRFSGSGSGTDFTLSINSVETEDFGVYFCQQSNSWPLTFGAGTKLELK | 90
F4.82.11 (antibody, human IgG1, V domains shown, human-murine chimeric antibody, human IgG1) VH: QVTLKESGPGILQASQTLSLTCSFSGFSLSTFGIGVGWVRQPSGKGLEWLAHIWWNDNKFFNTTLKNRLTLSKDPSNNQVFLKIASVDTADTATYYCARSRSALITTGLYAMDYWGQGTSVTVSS VL: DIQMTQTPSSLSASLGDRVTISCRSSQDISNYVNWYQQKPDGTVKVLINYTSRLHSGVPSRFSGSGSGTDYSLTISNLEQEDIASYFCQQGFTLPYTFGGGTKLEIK | 98

### Prompt Please look at this binder and report its Proportion of chimeric antibody positive cells to B cells (%) at 10 nM: F4.276.12 (antibody, human IgG1, V domains shown, human-murine chimeric antibody, human IgG1) VH: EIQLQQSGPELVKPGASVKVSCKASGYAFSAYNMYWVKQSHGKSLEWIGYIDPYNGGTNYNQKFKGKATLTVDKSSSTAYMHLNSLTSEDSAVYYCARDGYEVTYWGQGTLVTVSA VL: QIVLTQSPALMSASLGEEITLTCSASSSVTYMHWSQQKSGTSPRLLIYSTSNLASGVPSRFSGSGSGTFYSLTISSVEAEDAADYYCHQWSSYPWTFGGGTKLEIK
### Response 1
